Where do these numbers come from? They come from ChEMBL document CHEMBL1201862.

Please go through the items and note down their GI50.
# Tested on: A498
# Test Details: NCI tumour cell line growth inhibition, 48 h
Activity calls are given as the source filed them. No stated cut-off is given here; in the data, active = GI50 up to about 1.1 µM and inactive = higher.

- Compound: "C=C(Cl)C(Cl)(CBr)CCCC(C)C (stereo unspecified)"
  Experimental Target: "A498"
  GI50: "19.4 µM (inactive)"
- Compound: "Nc1nc(N)c(N=O)c(OCC2CCCCC2)n1"
  Experimental Target: "A498"
  GI50: "18.1 µM (inactive)"
- Compound: "Nc1ccc2nc(N)n[n+]([O-])c2c1"
  Experimental Target: "A498"
  GI50: "> 100 µM (inactive)"
- Compound: "CC(=O)O[C@H]1C(=O)[C@@]2(C)[C@H]([C@H](OC(=O)c3cccc(C(F)(F)F)c3)[C@]3(O)C[C@H](OC(=O)[C@H](O)[C@@H](NC(=O)c4ccccc4)c4ccccc4)C(C)=C1C3(C)C)[C@]1(OC(C)=O)CO[C@@H]1C[C@@H]2O"
  Experimental Target: "A498"
  GI50: "0.131 µM (active)"
- Compound: "CCCN(CCC)C1CCc2c(ccc3cc[nH]c23)C1 (stereo unspecified)"
  Experimental Target: "A498"
  GI50: "> 100 µM (inactive)"

# next compound below
Req: Give me measured GI50, please, for this compound: Cc1cc(N(CCC#N)CCC#N)ccc1C(/N=N\c1ccc(C(=O)O)cc1)=N\NC(=O)c1cc(Cl)ccc1O
Resp: 28.6 µM (inactive)

---

Please go through the items and note down their GI50.
# Test system: RXF 631
# Test Details: NCI tumour cell line growth inhibition, 48 h
Active and inactive are the calls of the source. No stated cut-off is given here; in the data, active = GI50 up to about 1.1 µM and inactive = higher.

Observe how each entry below is paired with its result.
- Molecule: "N#Cc1cc([N+](=O)[O-])ccc1NC(=O)C(=O)C(C(=O)/C=C/c1ccccc1)C1OC(=O)c2ccccc21 (stereo not drawn)"
  Readout Name: "GI50"
  Measured Result: "> 100 µM (inactive)"
- Molecule: "CSc1nc(NC2OC(COC(C)=O)C(OC(C)=O)C(OC(C)=O)C2OC(C)=O)c(/N=C\\C=N/c2c(NC3OC(COC(C)=O)C(OC(C)=O)C(OC(C)=O)C3OC(C)=O)nc(SC)n(C)c2=O)c(=O)n1C (stereo not drawn)"
  Readout Name: "GI50"
  Measured Result: "51.8 µM (inactive)"
- Molecule: "CCOc1ccc(NC(=O)/C(CC(=O)c2c[n+]([O-])c3ccccc3[n+]2[O-])=N\\OCCCc2ccccc2)cc1"
  Readout Name: "GI50"
  Measured Result: "> 100 µM (inactive)"
- Molecule: "COc1ccc(C(C#N)Cc2cc(OC)c(OC)c(OC)c2)cc1 (stereo not drawn)"
  Readout Name: "GI50"
  Measured Result: "35.6 µM (inactive)"

Quick request: GI50 for each listed item, please.
1. O=C1C(=O)N(c2cccc(C(F)(F)F)c2)C(=O)C(=O)C1c1nc2ccccc2s1
2. C=CCN1C(=O)C/C(=C2/CCC(=O)N2CC=C)C1=O
3. NC(=S)N/N=C(\C(=O)Nc1ccc(Cl)c(Cl)c1)C1=NN(c2ccccc2)C(c2cccc([N+](=O)[O-])c2)CC1=O (stereo not drawn)
4. O=C1C2=C(SCCS2)C(=O)c2ccccc21

Resp:
["88.1 µM (inactive)", "> 100 µM (inactive)", "12 µM (inactive)", "1.82 µM (inactive)"]

---

Please go through the items and note down their GI50.
# Test system: DU-145
# Test Details: NCI tumour cell line growth inhibition, 48 h
Calls of active or inactive are those of the source. Cut-off read from the data, not from the text of the source: active = GI50 up to about 1.1 µM and inactive = higher.

- Cpd Smiles: "N#C/C(=C\\NC(=S)Nc1ccc(S(=O)(=O)Nc2ccccn2)cc1)C(N)=O"
  Experimental Target: "DU-145"
  Measured Result: "> 100 µM (inactive)"
- Cpd Smiles: "CC(=O)NC(c1nc2cc(C)c(C)cc2[nH]1)c1nc2cc(C)c(C)cc2[nH]1"
  Experimental Target: "DU-145"
  Measured Result: "20.2 µM (inactive)"
- Cpd Smiles: "O=C1CCCc2cc3c(cc21)CC1(C3)Cc2cc3c(cc2C1)C(=O)CCC3"
  Experimental Target: "DU-145"
  Measured Result: "2.18 µM (inactive)"
- Cpd Smiles: "COC(=O)c1cc2c(cc1CC1Cc3cc4c(cc3C1)CCC4)CCC2"
  Experimental Target: "DU-145"
  Measured Result: "84.7 µM (inactive)"

Req: # assay system DU-145: give GI50 of BrCCCCCOc1ccc(-c2c3ccccc3c(-c3ccc(OCCCCCBr)cc3)c3ccccc23)cc1
Resp: > 100 µM (inactive)

---

# Test system: HL-60
# Test Details: NCI tumour cell line growth inhibition, 48 h
Activity calls are given as the source filed them. Rule as the data show it: active = GI50 up to about 1.1 µM and inactive = higher.
Readout Name: GI50

- Molecule: "Cc1cc(C)nc(NS(=O)(=O)c2ccc(NNc3c4ccccc4nc4c(C(=O)Nc5ccc(S(=O)(=O)Nc6cc(C)on6)cc5)cccc34)cc2)n1"
  Readout Name: "GI50"
  Measured Result: "30.8 µM (inactive)"
- Molecule: "NC(=O)NC1C(C(N)=O)N(Cc2ccccc2)C(=O)N1Cc1ccccc1 (configuration not stated)"
  Readout Name: "GI50"
  Measured Result: "> 100 µM (inactive)"
- Molecule: "NC(=S)N/N=C(\\C(=O)Nc1ccc(Cl)c(Cl)c1)C1=NN(c2ccccc2)C(c2cccc([N+](=O)[O-])c2)CC1=O (configuration not stated)"
  Readout Name: "GI50"
  Measured Result: "33.7 µM (inactive)"

Quick request: GI50 for each listed item, please.
1. CSC1=C(C)S/C(=C\c2ccc(/C=C3\SC(C)=C(SC)S3)cc2)S1
2. CCCCCCCCCCCC(=O)OCC1OC(n2cc(F)c(=O)[nH]c2=O)C(NC(=O)OCc2ccccc2)C(O)C1O (configuration not stated)

Resp:
> 100 µM (inactive)
20.6 µM (inactive)

---

# System: 786-0
# Test Details: NCI tumour cell line growth inhibition, 48 h
Calls of active or inactive are those of the source. No stated cut-off is given here; in the data, active = GI50 up to about 1.1 µM and inactive = higher.
Readout Name: GI50

Quick request: GI50 for each listed item, please.
1. Cc1cc2nc3c(C#N)c(-c4ccccc4)cc(Nc4cccc(C(F)(F)F)c4)n3c2cc1C
2. Oc1ccc2ccccc2c1/N=N/c1ccc(F)cc1
3. C=CCN(N=O)C(=O)N(CCCCC(NC(C)=O)C(=O)NCc1ccccc1)Cc1ccccc1 (centres undefined)
4. COC(=O)CNC(=O)c1cc(C)cc2c1Oc1c(cc(C)cc1C(=O)NCC(=O)OC)S2
5. N#Cc1cc([N+](=O)[O-])ccc1NC(=O)C(=O)C(C(=O)/C=C/c1ccccc1)C1OC(=O)c2ccccc21 (centres undefined)
6. COc1ccccc1NC(=O)CC(=O)N1N=C(N2c3ccccc3Sc3ccccc32)CC1c1ccccc1 (centres undefined)
7. COCCOC(=O)c1c(C)[n+]([O-])c2cc(Cl)c(Cl)cc2[n+]1[O-]

Resp:
1. 4.4 µM (inactive)
2. > 100 µM (inactive)
3. 28.6 µM (inactive)
4. 39.4 µM (inactive)
5. > 100 µM (inactive)
6. > 100 µM (inactive)
7. 22.6 µM (inactive)

Quick request: GI50 for each listed item, please.
1. COc1ccc(/C=C\c2cc(OC)c(O[Si](C)(C)C(C)(C)C)c(OC)c2)cc1
2. CCOC(=O)NC(=O)c1cn(C2OC(COC(=O)CCCCCCCCC(=O)OCC3OC(n4cc(C(=O)NC(=O)OCC)c(=O)[nH]c4=O)C(O)C3O)C(O)C2O)c(=O)[nH]c1=O (centres undefined)

Resp:
["39.9 µM (inactive)", "> 100 µM (inactive)"]

---

# System: T47D
# Test Details: NCI tumour cell line growth inhibition, 48 h
Activity calls are given as the source filed them. No stated cut-off is given here; in the data, active = GI50 up to about 1.1 µM and inactive = higher.
Please go through the items and note down their GI50.

Observe how each entry below is paired with its result.
- Compound: "Cc1[nH]n(C2=NCCN2)c(=O)c1Cc1ccccc1"
  GI50: "> 100 µM (inactive)"
- Compound: "O=C(Nc1ccccc1F)c1cc2ccc(O)cc2o/c1=N\\c1cccc(C(F)(F)F)c1"
  GI50: "2.59 µM (inactive)"
- Compound: "C=C(Cl)C(Cl)(CBr)CCCC(C)C (configuration not stated)"
  GI50: "> 21.2 µM (inactive)"
- Compound: "Nc1nc(Cl)cc(NCC2(CO)CCC2)n1"
  GI50: "29.7 µM (inactive)"
- Compound: "Cc1nc2ccc([N+](=O)[O-])cc2c(=O)n1C(=S)Nc1cccc(Cl)c1"
  GI50: "7.53 µM (inactive)"

Quick request: GI50 for each listed item, please.
1. CCOC(=O)C(=O)C(CCC(=O)c1ccc2ccccc2c1O)C(=O)OCC (configuration not stated)
2. Cc1c2cc[n+](CCN3CCCCC3)cc2c(C)c2c1[nH]c1ccc(O)cc12
3. Cc1nn(-c2ccccc2)c2nc3c(c(C)nn3-c3ccccc3)c(-c3ccccc3Br)c12
4. O=C1CC[N+]2=Cc3ccccc3O[B-]2(c2ccccc2)O1 (configuration not stated)
5. O=[N+]([O-])c1cccc(-c2ncc3c(n2)-c2ccccc2C3)c1

Resp:
> 100 µM (inactive)
2.82 µM (inactive)
> 100 µM (inactive)
> 100 µM (inactive)
> 100 µM (inactive)

Quick request: GI50 for each listed item, please.
1. CCCN(CCC)C1CCc2c(ccc3cc[nH]c23)C1 (configuration not stated)
2. CC(=O)NC(c1nc2cc(C)c(C)cc2[nH]1)c1nc2cc(C)c(C)cc2[nH]1
3. O=C1OC(CCCN2CCCCC2)(c2ccccc2)CC12CCCC2 (configuration not stated)

Resp:
1: > 100 µM (inactive); 2: 43 µM (inactive); 3: > 100 µM (inactive)

Quick request: GI50 for each listed item, please.
1. CSc1nc2c(c(N(C)C)n1)C(O)n1c(nc3ccccc31)S2 (configuration not stated)
2. NC1(C(=O)O)CCCC1C(=O)O (configuration not stated)

Resp:
38.1 µM (inactive)
> 100 µM (inactive)

Quick request: GI50 for each listed item, please.
1. CCCN1C(=O)/C(=C\c2ccc(OC)c(OC)c2)S/C1=N\c1ccccc1
2. CN(C)P(=O)(Oc1ccc(CC(NC(=O)OCc2ccccc2)C(=O)OCc2ccccc2)cc1)N(C)C (configuration not stated)
3. CC(C)=NOC(=O)CNC(=O)C(Cc1ccccc1)NC(=O)C(C)NC(=O)OC(C)(C)C (configuration not stated)
4. CC(C)=CCN(N=O)c1ncnc2[nH]cnc12
5. COC(=O)c1cc2c(cc1CC1Cc3cc4c(cc3C1)CCC4)CCC2
6. Cc1cc(N(CCC#N)CCC#N)ccc1C(/N=N\c1ccc(C(=O)O)cc1)=N\NC(=O)c1cc(Cl)ccc1O
7. OCC1OC(O[C@H]2CN3[C@H](O)[C@@H](O)[C@H](O)[C@H]3C2O)C(O)C(O)C1O (some centres not stated)

Resp:
1: > 100 µM (inactive); 2: 21 µM (inactive); 3: > 100 µM (inactive); 4: 94.6 µM (inactive); 5: 37.5 µM (inactive); 6: 40.7 µM (inactive); 7: > 100 µM (inactive)
